// data source = patent US9394273B2

- targetOrSystem: prostaglandin EP4 receptor (Homo sapiens (Human))
- Sequence (P35408 whole entry): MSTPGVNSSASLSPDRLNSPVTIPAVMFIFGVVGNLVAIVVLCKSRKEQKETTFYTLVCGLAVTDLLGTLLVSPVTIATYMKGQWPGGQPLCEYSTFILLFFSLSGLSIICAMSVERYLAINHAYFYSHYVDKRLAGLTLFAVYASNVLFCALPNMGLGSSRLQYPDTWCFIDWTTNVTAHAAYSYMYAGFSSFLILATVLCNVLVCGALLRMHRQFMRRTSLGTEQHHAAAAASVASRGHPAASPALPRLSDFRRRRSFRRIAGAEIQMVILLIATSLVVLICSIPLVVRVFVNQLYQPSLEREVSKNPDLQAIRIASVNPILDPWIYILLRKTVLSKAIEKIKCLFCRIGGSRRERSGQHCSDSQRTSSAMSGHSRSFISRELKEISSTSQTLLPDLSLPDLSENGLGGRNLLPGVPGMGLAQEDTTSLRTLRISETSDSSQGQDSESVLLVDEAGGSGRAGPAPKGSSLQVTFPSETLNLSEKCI
- experimentSummary: EP4 cAMP functional assay
Returns: string. Value is Fulfilled if measured EC50 is below 1 nM, and Not fulfilled if it is greater than or equal to it.

> print(dat)
                                    compound  classassignment
 1  COc1ccc2cc(CC(O)/C=C/[C@H]3CCC(=O)[C@@H]3CCc3ccc(C(=O)O)cc3)ccc2c1 (stereo partly shown) [Entry 16]    Not fulfilled
 2  O=C(O)c1ccc(CC[C@H]2C(=O)CC[C@@H]2/C=C/C(O)Cc2ccc3ccsc3c2)cc1 (stereo partly shown) [Entry 15]        Fulfilled
 3  O=C(O)c1ccc(CC[C@H]2C(=O)CC[C@@H]2/C=C/C(O)Cc2ccccc2F)cc1 (single isomer, unassigned) [Entry 21]    Not fulfilled
 4  O=C(O)c1ccc(CC[C@H]2C(=O)CC[C@@H]2/C=C/C(O)Cc2cccc(F)c2)cc1 (single isomer, unassigned) [Entry 6]        Fulfilled
 5  COc1ccc2ccc(CC(O)/C=C/[C@H]3CCC(=O)[C@@H]3CCc3ccc(C(=O)O)cc3)cc2c1 (stereo partly shown) [Entry 18]    Not fulfilled
 6  O=C(O)c1ccc(CC[C@H]2C(=O)CC[C@@H]2/C=C/C(O)Cc2sc3ccccc3c2Cl)cc1 (single isomer, unassigned) [Entry 3]    Not fulfilled
 7  O=C(O)c1ccc(CC[C@H]2C(=O)CC[C@@H]2/C=C/C(O)Cc2cc(F)ccc2F)cc1 (single isomer, unassigned) [Entry 28]        Fulfilled
 8  O=C(O)c1ccc(CC[C@H]2C(=O)CC[C@@H]2/C=C/C(O)Cc2ccc(F)cc2)cc1 (single isomer, unassigned) [Entry 20]        Fulfilled
 9  O=C(O)c1ccc(CC[C@H]2C(=O)CC[C@@H]2/C=C/C(O)Cc2ccc(F)c(F)c2)cc1 (single isomer, unassigned) [Entry 23]    Not fulfilled
10  O=C(O)c1ccc(CC[C@H]2C(=O)CC[C@@H]2/C=C/C(O)Cc2sc3ccccc3c2Cl)cc1 (single isomer, unassigned) [Entry 4]    Not fulfilled
11  O=C(O)c1ccc(CC[C@H]2C(=O)CC[C@@H]2/C=C/C(O)Cc2cccc(C(F)(F)F)c2)cc1 (single isomer, unassigned) [Entry 11]    Not fulfilled
12  O=C(O)c1ccc(CC[C@H]2C(=O)CC[C@@H]2/C=C/C(O)Cc2ccc3ccccc3c2)cc1 (single isomer, unassigned) [Entry 2]    Not fulfilled
13  O=C(O)c1ccc(CC[C@H]2C(=O)CC[C@@H]2/C=C/C(O)Cc2cccc(Cl)c2)cc1 (stereo partly shown) [Entry 7]    Not fulfilled
14  O=C(O)c1ccc(CC[C@H]2C(=O)CC[C@@H]2/C=C/C(O)Cc2ccccc2F)cc1 (single isomer, unassigned) [Entry 22]        Fulfilled
